Recorded values, source PubChem BioAssay (EPA / NIEHS).

- procedure_text: Tanguay_ZF_120hpf_CIRC_legacy: (Legacy) Oregon State University Tanguay Lab 120 Hour Post-fertilization zebrafish Assay for Circulatory Malformation (AID 2283651)
- Procedure: Tanguay_ZF_120hpf_legacy is a whole embryo, multiplexed endpoint assay using zebrafish larvae exposed for 120 hours post fertilization on a 96-well plate.Tanguay_ZF_120hpf_CIRC_legacy is one of one assay component(s) measured or calculated from the Tanguay_ZF_120hpf_legacy assay. […] This assay endpoint, Tanguay_ZF_120hpf_CIRC_legacy, was analyzed in the positive analysis fitting direction relative to DMSO as the negative control and baseline of activity. […]
Results filed as inconclusive are left out. Calls of active or inactive are those of the source. How the source made its calls: active means hit-call score of the fitted dose curve at least 0.9, where 1 is the maximum; inconclusive means response in the unintended direction; inactive means score below 0.9.
API: response.call in True (active), False (inactive)

Record excerpt, results attached:
>>> group_label("FC(F)C(F)(F)OCC(Cn1cncn1)c1ccc(Cl)cc1Cl (stereo not drawn)")
"True"
>>> group_label("CC(C)=CC1C(C(=O)OCN2C(=O)C3=C(CCCC3)C2=O)C1(C)C (stereo not drawn)")
"False"
>>> group_label("CCOP(=O)(OCC)Oc1cc(C)nc(C(C)C)n1")
"False"
>>> group_label("CCOC(=O)CC(SP(=O)(OC)OC)C(=O)OCC (stereo not drawn)")
"False"
>>> group_label("CCOP(=S)(OCC)Oc1cc(C)nc(C(C)C)n1")
"False"

Query block: # outcome recorded in this test, key = CC(C)[C@H](C(=O)O[C@H](C#N)c1cccc(Oc2ccccc2)c1)c1ccc(Cl)cc1
Result block: False

Query block: Recorded test call requested for CC(C)N(C(=O)SCC(Cl)=C(Cl)Cl)C(C)C
Result block: False

Query block: Hello, I am checking results. What call was entered for C#CCC1=C(C)C(OC(=O)C2C(C=C(C)C)C2(C)C)CC1=O (stereo not drawn) ?
Result block: False
